Below is a list of entries, each paired with its recorded IC50 value.
Target: Bifunctional 3'-5' exonuclease/ATP-dependent helicase WRN [480-1251] (UniProt Q14191)
Construct: 480-1251
Sequence (Q14191 480-1251): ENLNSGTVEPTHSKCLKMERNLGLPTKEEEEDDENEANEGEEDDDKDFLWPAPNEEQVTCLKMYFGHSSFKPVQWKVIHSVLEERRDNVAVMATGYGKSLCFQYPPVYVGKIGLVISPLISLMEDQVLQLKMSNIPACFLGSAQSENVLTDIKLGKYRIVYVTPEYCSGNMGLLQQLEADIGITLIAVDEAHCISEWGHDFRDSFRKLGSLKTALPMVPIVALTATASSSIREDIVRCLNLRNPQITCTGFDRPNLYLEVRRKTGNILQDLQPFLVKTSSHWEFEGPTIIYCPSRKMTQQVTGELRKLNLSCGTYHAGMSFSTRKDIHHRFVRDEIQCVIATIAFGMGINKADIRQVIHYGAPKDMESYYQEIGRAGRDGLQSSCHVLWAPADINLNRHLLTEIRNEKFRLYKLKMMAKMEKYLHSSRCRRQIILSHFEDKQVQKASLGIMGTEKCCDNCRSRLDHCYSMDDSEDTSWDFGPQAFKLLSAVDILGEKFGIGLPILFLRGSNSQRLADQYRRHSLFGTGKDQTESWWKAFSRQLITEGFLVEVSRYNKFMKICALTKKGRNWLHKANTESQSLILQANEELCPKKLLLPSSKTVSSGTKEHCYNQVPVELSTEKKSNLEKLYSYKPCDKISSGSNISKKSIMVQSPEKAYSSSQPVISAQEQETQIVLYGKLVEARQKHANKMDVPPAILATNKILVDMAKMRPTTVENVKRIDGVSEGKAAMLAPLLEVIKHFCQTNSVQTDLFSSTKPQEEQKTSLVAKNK
Assay: Biochemical Activity Assays
propertyName: IC50 (nM)

>>> endpointvalue("CCc1c(N2CCN(C(=O)c3ncnc(C)c3O)CC2)c(=O)n2nc(-c3ccc4c(c3)COC43COC3)nc2n1CC(=O)Nc1ccc(C(F)(F)F)cc1Cl [WO2025049746, Example 278]")
36
>>> endpointvalue("CCc1c(N2CCN(C(=O)c3ncnc(C)c3O)CC2)c(=O)n2nc(-c3ccc4nc(C)sc4c3)nc2n1CC(=O)Nc1ccc(C(F)(F)F)cc1Cl [WO2025049746, Example 285]")
29
>>> endpointvalue("CCc1c(N2CCN(C(=O)c3ncnc(C)c3O)CC2)c(=O)n2nc(-c3ccc4c(c3)CCOC4)nc2n1C(F)(F)C(=O)Nc1ccc(C(F)(F)F)cc1Cl [WO2025049746, Example 402]")
26
>>> endpointvalue("CCc1c(N2CCN(C(=O)c3ncnc(C)c3O)CC2)c(=O)n2nc(-c3ccc4nn(C)c(C)c4c3)nc2n1CC(=O)Nc1ccc(C(F)(F)F)cc1Cl [WO2025049746, Example 298]")
29
>>> endpointvalue("CCc1c(N2CCN(C(=O)c3ncnc(C)c3O)CC2)c(=O)n2nc(-c3ccc4c(c3)CN(C)C4(C)C)nc2n1CC(=O)Nc1ccc(C(F)(F)F)cc1Cl [WO2025049746, Example 261]")
33
>>> endpointvalue("CCc1c(N2CCN(C(=O)c3cccc4c3nnn4C)CC2)c(=O)n2nc(C3=CCOCC3)nc2n1CC(=O)Nc1ccc(C(F)(F)F)cc1Cl [WO2025049746, Example 49]")
46.7
>>> endpointvalue("CCc1c(N2CCN(C(=O)c3ccccc3NS(=O)(=O)C3CC3)CC2)c(=O)n2nc(-c3ccc4c(c3)OCO4)nc2n1CC(=O)Nc1ccc(C(F)(F)F)cc1Cl [WO2025049746, Example 87]")
138
>>> endpointvalue("CCc1c(N2CCN(C(=O)c3ncnc(C)c3O)CC2)c(=O)n2nc(-c3ccn4ncc(C)c4c3)nc2n1CC(=O)Nc1ccc(C(F)(F)F)cc1Cl [WO2025049746, Example 272]")
28
>>> endpointvalue("CCc1c(N2CCN(C(=O)c3ncnc(C)c3O)CC2)c(=O)n2nc(-c3ccc4nc(N5CCOCC5)oc4c3)nc2n1CC(=O)Nc1ccc(C(F)(F)F)cc1Cl [WO2025049746, Example 315]")
33
>>> endpointvalue("CCc1c(N2CCN(C(=O)c3ncnc(C)c3O)CC2)c(=O)n2nc(-c3ccc4nn(CC(F)F)cc4c3)nc2n1CC(=O)Nc1ccc(C(F)(F)F)cc1Cl [WO2025049746, Example 292]")
29
>>> endpointvalue("CCc1c(N2CCN(C(=O)c3ncnc(N4CC(F)(F)C4)c3O)CC2)c(=O)n2nc(-c3ccc4c(c3)COC4)nc2n1CC(=O)Nc1ccc(C(F)(F)F)cc1Cl [WO2025049746, Example 412]")
29
>>> endpointvalue("CCc1c(N2CCN(C(=O)c3ccccc3NS(C)(=O)=O)CC2)c(=O)n2nc(-c3cccc4c3OCCO4)nc2n1CC(=O)Nc1ccc(C(F)(F)F)cc1Cl [WO2025049746, Example 378]")
96
>>> endpointvalue("CCc1c(N2CCN(C(=O)C(C)n3cncn3)CC2)c(=O)n2nc(C3=CCOCC3)nc2n1CC(=O)Nc1ccc(C(F)(F)F)cc1Cl (stereo unspecified) [WO2025049746, Example 62]")
133
>>> endpointvalue("CCc1c(N2CCN(C(=O)c3ncnc(C)c3O)CC2)c(=O)n2nc(C3=CCOCC3)nc2n1CC(=O)NC12CC(C(F)(F)C(F)(F)F)(C1)C2 [WO2025049746, Example 69]")
141
>>> endpointvalue("CCc1c(N2CCN(C(=O)c3nc4c(cc3O)CCCC4)CC2)c(=O)n2nc(-c3ccc4c(c3)COC4)nc2n1CC(=O)Nc1ccc(C(F)(F)F)cc1Cl [WO2025049746, Example 423]")
150
>>> endpointvalue("CCc1c(-c2cc3n(n2)CC(=O)N(C)C3)c(=O)n2nc(C3=CCOCC3)nc2n1CC(=O)Nc1ccc(C(F)(F)F)cc1Cl [WO2025049746, Example 338]")
29700
>>> endpointvalue("CCc1c(N2CCN(C(=O)c3ncnc(C)c3O)CC2)c(=O)n2nc(-c3cnc4ccn(C)c4c3)nc2n1CC(=O)Nc1ccc(C(F)(F)F)cc1Cl [WO2025049746, Example 304]")
29
>>> endpointvalue("CCc1c(N2CCN(C(=O)c3ncnc(C)c3O)CC2)c(=O)n2nc(-c3ccc4c(c3)CN(C)C4)nc2n1CC(=O)Nc1ccc(C(F)(F)F)cc1Cl [WO2025049746, Example 197]")
52
>>> endpointvalue("CCc1c(N2CCN(C(=O)c3ncnc(C)c3O)CC2)c(=O)n2nc(-c3ccc4c(c3)COC4)nc2n1CC(=O)Nc1c(Cl)cc(C(F)(F)F)c2scnc12 [WO2025049746, Example 424]")
37
>>> endpointvalue("CCc1c(N2CCN(C(=O)c3ncnc(C)c3O)CC2)c(=O)n2nc(-c3cc4cnn(C)c4cc3C)nc2n1CC(=O)Nc1ccc(C(F)(F)F)cc1Cl [WO2025049746, Example 311]")
47
>>> endpointvalue("CCc1c(N2CCN(C(=O)c3ncnc(C)c3O)CC2)c(=O)n2nc(-c3ccc4c(c3F)CCO4)nc2n1CC(=O)Nc1ccc(C(F)(F)F)cc1Cl [WO2025049746, Example 180]")
45
